Reference source: paper PMC12838644

Lyase/CYP21A2 Selectivity Index overview
Target: CYP17A1 17,20-lyase (Homo sapiens, UniProt P05093)
Sequence (P05093 whole entry): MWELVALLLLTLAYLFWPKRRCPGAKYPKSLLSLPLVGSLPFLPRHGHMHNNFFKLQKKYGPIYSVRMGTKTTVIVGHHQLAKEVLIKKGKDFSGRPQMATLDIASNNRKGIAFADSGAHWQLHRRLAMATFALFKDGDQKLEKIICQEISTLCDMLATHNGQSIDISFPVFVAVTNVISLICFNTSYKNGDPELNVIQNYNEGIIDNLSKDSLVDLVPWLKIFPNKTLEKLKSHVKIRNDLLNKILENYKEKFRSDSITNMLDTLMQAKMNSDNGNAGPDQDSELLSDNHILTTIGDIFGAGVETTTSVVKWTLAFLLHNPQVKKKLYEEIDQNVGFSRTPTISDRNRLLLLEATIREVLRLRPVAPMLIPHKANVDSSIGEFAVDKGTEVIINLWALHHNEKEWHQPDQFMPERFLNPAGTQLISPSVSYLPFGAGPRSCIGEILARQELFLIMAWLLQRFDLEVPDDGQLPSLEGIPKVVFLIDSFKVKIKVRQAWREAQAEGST
Experiment: CYP17A1 17,20-lyase activity assay (DHEA from 17OH-pregnenolone, POR, CYP17A1 and cytochrome b5)
Type: biochemical
Details: (% Inhibition Lyase)/(% Inhibition CYP21A2) at 10 µM (SM 10 µg/mL)
Description: Assay of CYP17A1 17α-hydroxylase and 17,20-lyase activities were performed as described previously. The 17α-hydroxylase activity was measured by conversion of progesterone to 17OH-progesterone, while production of DHEA from 17OH-pregnenolone was used for monitoring the 17,20-lyase activity of CYP17A1. In vitro CYP17A1 assays were performed using a liposome system consisting of human p450 oxidoreductase (POR) and CYP17A1 at a ratio of 3:4 (POR: CYP17A1). […]
API doc: respond with a numeric literal and nothing else, no unit.

Problem: Field: Lyase/CYP21A2 Selectivity Index (CYP17A1 17,20-lyase (Homo sapiens, UniProt P05093)). Entry: Cc1cccc2c3c(ccc12)C1=C(C(=O)C3=O)[C@@H](C)CO1 [DT, dihydrotanshinone I]
Result: 3.80

Problem: Param item: C[C@]12CC[C@H](O)CC1=CC[C@@H]1[C@@H]2CC[C@]2(C)C(c3cccnc3)=CC[C@@H]12 [Abiraterone, abiraterone, reference compound]
Result: 2.34

---

test system: NCI-H295R cells; assay: alamarBlue cytotoxicity assay, NCI-H295R; type: cell-based; conditions: Homo sapiens, 24 h, read-out: NCI-H295R (IC50)
measurement-label: pIC50
Note on pIC50: it is the negative log10 of concentration, concentration in mol/L.

Problem: Fill blank: measured pIC50 of the compound Cc1cccc2c3c(ccc12)C1=C(C(=O)C3=O)[C@@H](C)CO1 [DT, dihydrotanshinone I] is ____.
Result: 6.02
